Tested on: Moloney murine sarcoma virus
Assay: Antiviral activity against Moloney sarcoma virus
Type: functional, organism-based
pIC50: −log10 of the molar value.
Param threshold (9) applies to pIC50; output 1 when value >= threshold, 0 when value < threshold.

Completed entries (count: 5):
INSERT INTO measurements (compound, cat) VALUES
  ('Nc1nc(OCCOCP(=O)(O)O)cc(OCCOCP(=O)(O)O)n1', 1),
  ('Nc1cc(SCCOCP(=O)(O)O)nc(N)n1', 0),
  ('Nc1cc(O)nc(SCCOCP(=O)(O)O)n1', 1),
  ('Nc1nc(NC2CC2)cc(OCCOCP(=O)(O)O)n1', 1),
  ('Nc1cc(OCCOCP(=O)(O)O)ncn1', 0);

query: hey, is pIC50 for this one >= 9? Nc1nc(OCCOCP(=O)(O)O)cc(=O)n1CCOCP(=O)(O)O
result: 1

query: Lookup CN(C)c1cc(OCCOCP(=O)(O)O)nc(N)n1
result: 1

* * *

Measured IC50 values are reported for all entries that follow.
System: Human alphaherpesvirus 2
Assay: Antiviral activity against Herpes simplex virus 2
Assay type: functional, organism-based
Conditions: Human alphaherpesvirus 2
Answer in nM, number only, no unit symbol.

Before answering, review these 8 worked examples.
INSERT INTO results (compound, tested_system, quantitative_readout) VALUES
  ('CCc1nn([C@H]2C[C@H](O)[C@@H](CO)S2)c(=O)nc1O', 'Human alphaherpesvirus 2', 200000),
  ('Nc1nc(N)c(Br)c(OCCOCP(=O)(O)O)n1', 'Human alphaherpesvirus 2', 0.7),
  ('CCOC(=O)Cc1c(N)nc(N)n(CCOCP(=O)(O)O)c1=O', 'Human alphaherpesvirus 2', 1.2),
  ('O=c1[nH]c(=O)n([C@H]2C[C@H](O)[C@]3(CO)C[C@H]23)cc1I', 'Human alphaherpesvirus 2', 9060),
  ('Nc1nc(OCCOCP(=O)(O)O)cc(OCCOCP(=O)(O)O)n1', 'Human alphaherpesvirus 2', 0.993),
  ('Nc1nc(O)cc(OCCOCP(=O)(O)O)n1', 'Human alphaherpesvirus 2', 0.0362),
  ('Nc1nc(N)n(CCOCP(=O)(O)O)c(=O)c1C1CC1', 'Human alphaherpesvirus 2', 0.12),
  ('CN(C)c1cc(OCCOCP(=O)(O)O)nc(N)n1', 'Human alphaherpesvirus 2', 1.37);

query: Form field: reported IC50 of C=CCc1c(N)nc(N)n(CCOCP(=O)(O)O)c1=O
result: 0.77

* * *

Test system: Hepatitis C virus
Test: Antiviral activity against Hepatitis C virus
Assay type: functional, organism-based, Hepacivirus hominis
Details: Hepatitis C virus
Starred links: 1 amine or outer side, 2 acyl side, 3 side chain; linkers in the order of their positions; H or OH if unused. Non-standard residues stand in square brackets, D forms with d. Residues, ends and D or L forms follow the SMILES beside them. *: point of attachment. Hyp = O=C(O)[C@@H]1C[C@@H](O)CN1; azaNva = CCCN(N[*:1])C(=O)[*:2]; X3 = C[C@H](N*)c1ccc(Br)cc1; Bn = c1ccc(C*)cc1
VALUE KIND: pIC50
Lab note: report pIC50 as minus log10 of the concentration in molar units, number only.

INSERT INTO assay_data (compound, value_kind, quantitative_readout) VALUES
  ('COc1ccc2c(O[C@@H]3C[C@H]4C(=O)N[C@]5(C(=O)O)C[C@H]5/C=C\CCCCC[C@H](NC(=O)OC5CCC5)C(=O)N4C3)cc(-c3csc(NC(C)=O)n3)nc2c1', 'pIC50', 8.59),
  ('O=C(O)C(=O)CC(=O)c1ccccc1', 'pIC50', 5.24),
  ('CC(=O)CC(=O)C(=O)O', 'pIC50', 4.30);

query: Any idea what its pIC50 is? The compound is COC(=O)c1ccccc1CCNC(=O)[C@H](CS)NC(=O)[C@H](CC(C)C)NC(=O)[C@H](CCC(=O)O)NC(=O)OCC(C)C
result: 4.27

query: Lookup Cc1cn([C@@H]2O[C@H](CO)[C@@H](O)[C@@]2(C)O)c2ncnc(N)c12
result: 4.47

query: What about N#Cc1ccc(CN(C(=O)c2ccc(Cl)cc2Cl)[C@@H](Cc2ccccc2)C(=O)O)cc1 ?
result: 5.10

query: Cool, now CCCN(NC(=O)[C@@H]1C[C@@H](OCc2ccccc2)CN1C(=O)[C@@H](NC(=O)[C@@H](NC(=O)[C@@H](CCC(=O)O)NC(=O)[C@H](CC(=O)O)NC(C)=O)[C@@H](C)CC)C(C)C)C(=O)N[C@@H](C)c1ccc(Br)cc1 (Ac-D[dE]IV[Hyp](Bn)[azaNva]-X3)
result: 7.14

* * *

Test system: Enterovirus C
Assay: Antiviral activity against Poliovirus
Type: functional, organism-based
VALUE KIND: pIC50
In textbook form, pIC50 equals minus log to base ten of the concentration in mol/L.

query: Give the measured pIC50 of O=c1n(Cc2nc3ccccc3n2CCCCO)c2cnccc2n1C1CC1 .
result: 3.70

* * *

Test system: Hepatitis C virus
Experiment: Antiviral activity against Hepatitis C virus
Assay type: functional, organism-based, Hepacivirus hominis
Settings: Hepatitis C virus
pIC50: −log10 of the molar value. Starred links: 1 amine or outer side, 2 acyl side, 3 side chain; linkers in the order of their positions; H or OH if unused. Non-standard residues stand in square brackets, D forms with d. Residues, ends and D or L forms follow the SMILES beside them. *: point of attachment. Hyp(quinolin-4-yl) = O=C(O)[C@@H]1C[C@@H](Oc2ccnc3ccccc23)CN1; CH2(1-naphthyl) = c1ccc2c(C*)cccc2c1; Hyp = O=C(O)[C@@H]1C[C@@H](O)CN1; azaNva = CCCN(N[*:1])C(=O)[*:2]; Chg = N[C@H](C(=O)O)C1CCCCC1; X7 = C[C@H](N*)C1CCCCC1; Ac3c = NC1(C(=O)O)CC1; Bn = c1ccc(C*)cc1
# if value of pIC50 reaches 6, tag Fulfilled; if it stays below, tag Not fulfilled

INSERT INTO results (compound, cat) VALUES
  ('N#CCCCOc1ccccc1C(=O)CC(=O)C(=O)O', 'Fulfilled');

query: Answer whether pIC50 of CNc1nc(-c2cc(O[C@@H]3C[C@H]4C(=O)N[C@]5(C(=O)O)C[C@H]5/C=C\CCCCC[C@H](NC(=O)OC5CCCC5)C(=O)N4C3)c3ccc(OC)cc3n2)cs1 is greater than or equal to 6.
result: Fulfilled

query: Request: N#Cc1c(Cl)cc(Cl)cc1COc1cccc(C(=O)/C=C(\O)C(=O)O)c1
result: Fulfilled

query: And the next one, COC(=O)c1cccc(CCNC(=O)[C@H](CS)NC(=O)[C@H](CC(C)C)NC(=O)[C@H](CCC(=O)O)NC(=O)OCC(C)C)c1 ?
result: Not fulfilled

query: Further, for CC(=O)N[C@H](C(=O)N[C@H](C(=O)N1C[C@H](OCc2cccc3ccccc23)C[C@H]1C(=O)N[C@@]1(C(=O)O)C[C@@H]1C)C(C)C)C1CCCCC1 ?
result: Not fulfilled

query: Check CCC[C@@]1(CC(=O)O)OCCc2c1[nH]c1c(C)ccc(C#N)c21 too.
result: Not fulfilled

query: Continue with CCCN(NC(=O)[C@@H]1C[C@@H](OCc2ccccc2)CN1C(=O)[C@@H](NC(=O)[C@@H](NC(=O)[C@@H](CCC(=O)O)NC(=O)[C@H](CC(=O)O)NC(C)=O)[C@@H](C)CC)C(C)C)C(=O)N[C@@H](C)C1CCCCC1 (Ac-D[dE]IV[Hyp](Bn)[azaNva]-X7)
result: Fulfilled

query: One more compound: CC(=O)N[C@H](C(=O)N[C@H](C(=O)N1C[C@H](OCc2cccc3ccccc23)C[C@H]1C(=O)NC1(C(=O)O)CC1)C(C)C)C1CCCCC1 (Ac-[Chg]V[Hyp](CH2(1-naphthyl))[Ac3c]-OH)
result: Not fulfilled

query: # repeat for COc1ccc2c(O[C@@H]3C[C@H]4C(=O)N[C@]5(C(=O)O)C[C@H]5/C=C\CCCCC[C@H](NC(=O)OC(C)(C)C)C(=O)N4C3)cc(-n3cnc(C)c3)nc2c1
result: Fulfilled

query: Can you handle COc1ccc2c(O[C@@H]3C[C@H]4C(=O)N[C@]5(C(=O)O)C[C@H]5/C=C\CCCCC[C@H](NC(=O)OC(C)(C)C)C(=O)N4C3)cc(-n3ccnc3)nc2c1 next?
result: Fulfilled

query: Another compound to check: CC(=O)N[C@H](C(=O)N[C@H](C(=O)N1C[C@H](Oc2cccc(-c3cccc([N+](=O)[O-])c3)c2)C[C@H]1C(=O)NC1(C(=O)O)CC1)C(C)C)C1CCCCC1
result: Not fulfilled

query: Record: CC(=O)N[C@H](C(=O)N[C@H](C(=O)N1C[C@H](OCc2cccc3ccccc23)C[C@H]1C(=O)N[C@@]1(C(=O)O)C[C@@H]1Cc1ccccc1)C(C)C)C1CCCCC1
result: Not fulfilled

query: Please give the result for CC(=O)N[C@H](C(=O)N[C@H](C(=O)N1C[C@H](Oc2ccnc3ccccc23)C[C@H]1C(=O)NC1(C(=O)O)CC1)C(C)C)C1CCCCC1 (Ac-[Chg]V[Hyp(quinolin-4-yl)][Ac3c]-OH) too.
result: Not fulfilled

query: Also need COc1ccc2c(O[C@@H]3C[C@H]4C(=O)N[C@]5(C(=O)O)C[C@H]5/C=C\CCCCC[C@H](NC(=O)OC(C)(C)C)C(=O)N4C3)cc(-c3nnc(C)o3)nc2c1 , thanks.
result: Fulfilled

query: Now consider N#Cc1ccc(Br)cc1COc1cccc(C(=O)/C=C(\O)C(=O)O)c1 .
result: Fulfilled
